Values were extracted from patent US7026348B2.

- assay system: recombinant human secreted phospholipase A2 (Homo sapiens, UniProt P14555)
- Sequence (P14555 21-144): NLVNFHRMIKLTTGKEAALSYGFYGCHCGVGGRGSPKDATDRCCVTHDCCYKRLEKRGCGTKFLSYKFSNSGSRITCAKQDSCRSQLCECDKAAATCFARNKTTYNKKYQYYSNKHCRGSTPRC
- procedure summary: chromogenic assay of recombinant human secreted phospholipase A2 inhibition
- details: diheptanoyl thio-PC substrate, pH 7.5, 40° C. for 30 minutes, absorbance at 405 nanometers, triplicate; read-out: Inhibition of human secreted PLA2 IC50 ± mean deviation
Counter-ions that a name gives are not always drawn.
test readout: pIC50
Numbers only, as −log10 of the molar value.

CCc1c(C(=O)C(N)=O)c2c(OCC(=O)NS(=O)(=O)c3ccc(CCN)cc3)cccc2n1Cc1ccccc1 [Example 5, Hydrochloride Salt]	7.80

Lab note: each compound below needs its pIC50 filled in.
1. CCc1c(C(=O)C(N)=O)c2c(OCC(=O)NS(=O)(=O)c3ccccc3C)cccc2n1Cc1ccccc1
2. CCc1c(C(=O)C(N)=O)c2c(OCC(=O)NS(=O)(=O)c3ccccc3)cccc2n1Cc1ccccc1
3. CCc1c(C(=O)C(N)=O)c2c(OCC(=O)NS(C)(=O)=O)cccc2n1Cc1ccccc1
4. CCc1c(C(=O)C(N)=O)c2c(OCC(=O)NS(=O)(=O)C(F)(F)F)cccc2n1Cc1ccccc1

Response:
[8.05, 8.15, 7.92, 7.77]
